- System: NCI-H322M lung
- measurement.description: NCI-60 one-dose screen, 48 h (100 = growth as untreated, 0 = no growth, -100 = all killed)
- experimental.conditions: 10 µM unless noted
About 83,000 compounds went through this panel and 20% of them were active in at least one assay; those are over-represented in the sample as a whole.
List of growth values.
endpoint: growth (%)

INSERT INTO measurements (sample_smiles, units_text, result_value) VALUES
  ('Cc1oc2nc[nH]c(=O)c2c1C(=O)/C=C/c1ccc(Cl)cc1Cl', '%', 92.4),
  ('Cc1cccc(NC(=O)c2sc3nc4c(cc3c2N)CCC4)c1C', '%', 40.1),
  ('COc1ccccc1OCC(=O)Nc1sc2c(c1C(N)=O)CCC2', '%', 105),
  ('C=C1C(=O)O[C@H]2[C@H]1CC/C(COC(=O)NCc1ccc(OC)cc1)=C\CC[C@@]1(C)O[C@@H]21', '%', 84.6),
  ('C=C1C(=O)O[C@H]2[C@H]1CC/C(COC(=O)NCc1cc(OC)c(OC)c(OC)c1)=C\CC[C@@]1(C)O[C@@H]21', '%', 99.5),
  ('O=C1c2ccccc2C(=O)c2c1oc1oc3c(c(=O)c21)c(=O)n(-c1ccccc1)c1ccccc31', '%', 63.5),
  ('Cc1ccc(Cn2c(-c3nonc3N)nc3ccccc32)cc1', '%', 86),
  ('Cc1sc(N=Nc2ccc(N(C)C)cc2)[n+]([O-])c1C', '%', 94.5);

Data provenance: PubChem BioAssay (NCI)
